Values from ChEMBL document CHEMBL1201862

# System: MOLT-4
# assay remarks: NCI tumour cell line growth inhibition, 48 h
Calls of active or inactive are those of the source. Cut-off read from the data, not from the text of the source: active = GI50 up to about 1.1 µM and inactive = higher.
In this exercise, the only acceptable responses are 1 (yes) (active), 0 (no) (inactive)

>>> assigned_category("CCn1c(-c2ccc(OC(C)=O)cc2)c(C)c2cc(OC(C)=O)ccc21")
"0 (no)"
>>> assigned_category("O=C(NN1C(=O)C=CC1=O)c1ccccc1Nc1ccccc1C(=O)NN1C(=O)C=CC1=O")
"0 (no)"

// next entry
Query string: Fill in: this test's call for O=[N+]([O-])CC(SCc1ccccc1)c1ccc2c(c1)OCO2 (stereo not given) is ___
Result string: 0 (no)

====

# System: M14
# assay remarks: NCI tumour cell line growth inhibition, 48 h
Activity calls are given as the source filed them. Cut-off read from the data, not from the text of the source: active = GI50 up to about 1.1 µM and inactive = higher.
Answer with one of the outcomes given here: t (active), f (inactive)

>>> assigned_category("COc1cc(CNc2nc3ccc(C(F)(F)F)cc3nc2-c2ccccc2)cc(OC)c1OC")
"f"

Query string: What was the test verdict on O=C1CCCC1C(O)(C(F)(F)Cl)C(F)(F)Cl (configuration not stated) ?
Result string: f

Query string: Param item: COc1ccc2c(c1)CCc1cnn(C3OC(COC(C)=O)C(OC(C)=O)C(OC(C)=O)C3OC(C)=O)c1-2 (configuration not stated)
Result string: f

Query string: Thanks! And CCOP(=O)(OCC)C(c1ccc(F)cc1)N(C(=O)NC(F)(F)F)c1ccc(OC)cc1 (configuration not stated) ?
Result string: f

Query string: Would you mind doing COc1ccc(CC2c3cc4c(cc3CCN2C)OCO4)c(C=O)c1OC (configuration not stated) as well?
Result string: f

Query string: Try this molecule too: "COc1cc(Br)c(C2OCCCO2)cc1OCc1ccccc1"
Result string: f

====

Listing of recorded GI50 by entry.
# Test system: T47D
# assay remarks: NCI tumour cell line growth inhibition, 48 h
Active and inactive are the calls of the source. Cut-off read from the data, not from the text of the source: active = GI50 up to about 1.1 µM and inactive = higher.

Below, each entry is followed by its recorded GI50 result.
>>> reported_measurement("Cc1ccc(-c2c(-c3ccccc3)[nH]c(C)c2C(=O)ONC(=O)c2ccccc2)cc1")
"4.6 µM (inactive)"
>>> reported_measurement("c1ccc(CN2CCC(=NN3CCCCC3)CC2)cc1")
"37.1 µM (inactive)"
>>> reported_measurement("O=c1[nH]c(N/N=C\\C(O)C(O)C(O)C(O)CO)nc2ccccc12 (stereo not drawn)")
"> 100 µM (inactive)"
>>> reported_measurement("CN(CCc1ccc(N)cc1)[C@H]1CCCC[C@H]1N1CCCC1")
"> 100 µM (inactive)"
>>> reported_measurement("O=C1NC(=O)C(c2c[nH]c3cc(Br)ccc23)=C1c1cnc[nH]1")
"48.8 µM (inactive)"

Query string: # input compound: "Brc1c2c(c(Br)c3nsnc13)N=S=N2" ; wanted: its GI50
Result string: 27.7 µM (inactive)

Query string: Follow-up entry: NS(=O)(=O)c1ccc(/N=N/c2ccc(O)c(C(=O)O)c2)cc1 [SALAZOSULFAMIDE]
Result string: > 100 µM (inactive)

Query string: Now the compound C[C@H]1O[C@@H](O[C@H]2[C@@H](O)C[C@H](O[C@H]3[C@@H](O)C[C@H](O[C@H]4CC[C@@]5(C)[C@H](CC[C@@H]6[C@@H]5CC[C@]5(C)[C@@H](C7=CC(=O)OC7)[C@@H](O)C[C@]65O)C4)O[C@@H]3C)O[C@@H]2C)C[C@H](O)[C@@H]1O [GITOXIN]
Result string: 0.42 µM (active)

Query string: # repeat for "O=C(Nc1ccccn1)c1cc2c(cc1Cl)Sc1nccn1S2(=O)=O"
Result string: 20.7 µM (inactive)

Query string: Lookup "c1ccc2c(c1)nc1n2CCSC1"
Result string: > 100 µM (inactive)

Query string: Please give the result for CC(Cc1ccccc1)NC1=NCCO1 (stereo not drawn) too.
Result string: 35.1 µM (inactive)

Query string: Follow-up entry: "O=C(NN1C(=O)C=CC1=O)c1ccccc1Nc1ccccc1C(=O)NN1C(=O)C=CC1=O"
Result string: > 100 µM (inactive)

Query string: Please do the same for COCCCN1C(=O)C2c3[nH]c4ccccc4c3C3CCC(C(C)(C)C)CC3C2C1=O (stereo not drawn) as well.
Result string: 48.4 µM (inactive)

Query string: # repeat for "N#CCCN(CCC#N)c1ccc(/C=C2\N=C(c3ccccc3)N(c3ccc(C(=O)O)cc3)C2=O)cc1"
Result string: 40.7 µM (inactive)

Query string: Try the compound CN/N=C(/CCN1CCCC1)CC(c1ccccc1)c1c(O)c2ccccc2oc1=O (stereo not drawn)
Result string: 49.4 µM (inactive)

Query string: Would you mind doing "Cc1nnc(-n2c(O)cc(=O)n(-c3ccccc3)c2=S)nc1/C=C/c1ccc(N(C)C)cc1" as well?
Result string: 6.62 µM (inactive)

Query string: What do we get for CC(=O)OC1CCC2(C)C(=CC(C3C=C4CC(OC(C)=O)CCC4(C)C4=C3C3CC5OC6(CCC(C)CO6)C(C)C5C3(C)CC4)C3=C2CCC2(C)C3CC3OC4(CCC(C)CO4)C(C)C32)C1 (stereo not drawn) ?
Result string: 15.5 µM (inactive)

Query string: Same read-out for CC(=O)OCC1OC(N2C(S)=C(C#N)C(c3ccco3)C(C(C)=O)=C2c2ccccc2)C(OC(C)=O)C(OC(C)=O)C1OC(C)=O (stereo not drawn) ?
Result string: > 100 µM (inactive)

====

# Test system: HCC 2998
# assay remarks: NCI tumour cell line growth inhibition, 48 h
Active and inactive are the calls of the source. Cut-off read from the data, not from the text of the source: active = GI50 up to about 1.1 µM and inactive = higher.
value type: GI50

A selection of reference data follows.
>>> reported_measurement("CN1CN(c2ccccc2)C2(CCN(CCCC3(c4cccs4)OCCO3)CC2)C1=O")
"> 100 µM (inactive)"
>>> reported_measurement("CC1C(c2ccccc2O)c2cc3c(cc2OC1N1CCOCC1)OCO3 (centres undefined)")
"25 µM (inactive)"
>>> reported_measurement("O=C(Cc1ccccc1)NNc1nc(NNC(=O)c2ccncc2)nc(Nc2ccc(Cl)cc2)n1")
"> 10 µM (inactive)"
>>> reported_measurement("CC(=O)OC1C=CC2CCN3C(=O)c4cc5c(cc4[C@H]1C23)OCO5 (some centres undefined)")
"> 10 µM (inactive)"
>>> reported_measurement("C=CCOc1ccc(C2(O)c3ccccc3C3=NCCCN32)cc1 (centres undefined)")
"24.6 µM (inactive)"

Query string: Any idea what GI50 came out for COc1ccccc1C1c2cc3c(cc2OC(O)(CO)C1C(=O)O)OCO3.COc1ccccc1C1c2cc3c(cc2OC2(O)COC(=O)C12)OCO3 (centres undefined) on HCC 2998?
Result string: > 100 µM (inactive)

Query string: Could you do the same for COC1=CC(=O)OC(/C=C(C)/C=C/C2=C(C)CCCC2(C)C)C1 (centres undefined) , please?
Result string: > 100 µM (inactive)

====

# System: A549
# assay remarks: NCI tumour cell line growth inhibition, 48 h
Activity calls are given as the source filed them. No stated cut-off is given here; in the data, active = GI50 up to about 1.1 µM and inactive = higher.
Use one of these outcomes when replying: class 1 (active), class 0 (inactive)

>>> assigned_category("O=C(OCCC12CC3CC(CC(C3)C1)C2)c1ccc(NCc2cc(O)ccc2O)cc1")
"class 0"
>>> assigned_category("O=C(CP(=O)(O)O)c1cccs1")
"class 0"
>>> assigned_category("c1ccc2c(c1)Nc1ccccc1[P+]21c2ccccc2Nc2ccccc21")
"class 1"
>>> assigned_category("CC(=O)Nc1ccc(/C=C2\\N=C(c3ccccc3)OC2=O)cc1")
"class 0"
>>> assigned_category("COc1ccc(-n2c3c(c4c(CN(C)C)c(O)ccc42)C(=O)c2ccccc2C3=O)cc1")
"class 0"

Query string: Could you check what this test reported for "Oc1nc(S)nc2c1C(c1ccc(Cl)cc1)c1c(O)nc(S)nc1O2" ?
Result string: class 0

Query string: Thanks! And "CCOC(=O)/C=C/c1ccccn1" ?
Result string: class 0

Query string: Also "C1=CCN(c2ccccc2)CC1" ?
Result string: class 0

Query string: Now consider COc1cc(CNC2c3cc4c(cc3C(c3cc(OC)c(OC)c(OC)c3)[C@H]3C(=O)OCC23)OCO4)cc(OC)c1OC (stereo not given in full) .
Result string: class 1

Query string: Next entry: "C=C(C)[C@H]1C2=CC(C(=O)OC)=C(C[C@H](C(=C)C)[C@@H](O)[C@@H](O)C3=C[C@H]1OC3=O)O2"
Result string: class 0

====

# Tested on: OVCAR-4
# assay remarks: NCI tumour cell line growth inhibition, 48 h
The source made the active and inactive calls. Rule as the data show it: active = GI50 up to about 1.1 µM and inactive = higher.
# maps each entry to its GI50

For orientation, consider the following solved cases.
>>> reported_measurement("Cc1oc2nc1C(=O)NCc1nc(cs1)C(=O)N[C@H](C(C)C)c1nc(cs1)C(=O)N[C@H]2C")
"> 100 µM (inactive)"
>>> reported_measurement("CN(C)CCn1nc(N)c2nc3cc(C(F)(F)F)ccc3nc21")
"> 100 µM (inactive)"
>>> reported_measurement("CN1CCN(Cc2ccccc2)CC1CC#N (configuration not stated)")
"> 100 µM (inactive)"
>>> reported_measurement("c1ccc2c(c1)c1c(c3ccccc32)CN2CCCC2C1 (configuration not stated)")
"3.3 µM (inactive)"
>>> reported_measurement("CNC(=O)OCC1=C(COC(=O)NC)C(C)N(c2ccc(OC)cc2)C1 (configuration not stated)")
"54.6 µM (inactive)"
>>> reported_measurement("OCC(S)CS.[Bi] (configuration not stated)")
"23.6 µM (inactive)"

Query string: Would you kindly share the measured GI50 for "Cc1ccc(-c2n[nH]c(=O)n2N)cc1" ?
Result string: > 100 µM (inactive)

Query string: // query: CNC(=O)N(CCCCC(NC(C)=O)C(=O)NCc1ccccc1)Cc1ccccc1 (configuration not stated)
Result string: > 100 µM (inactive)

Query string: "COc1cc(CNc2nc3ccc(C(F)(F)F)cc3nc2-c2ccccc2)cc(OC)c1OC" , same question.
Result string: 19.4 µM (inactive)
